I'd be grateful if you could share measured IC50 for these entries.
biological target: human Nav1.8 (Homo sapiens); assay: SyncroPatch384PE assay (automated patch clamp); type: cell-based; details: resting state block (P1 measurement), human Nav1.8/b3 CHO cells, read-out: P1 IC50
Sequence (Q9Y5Y9 whole entry): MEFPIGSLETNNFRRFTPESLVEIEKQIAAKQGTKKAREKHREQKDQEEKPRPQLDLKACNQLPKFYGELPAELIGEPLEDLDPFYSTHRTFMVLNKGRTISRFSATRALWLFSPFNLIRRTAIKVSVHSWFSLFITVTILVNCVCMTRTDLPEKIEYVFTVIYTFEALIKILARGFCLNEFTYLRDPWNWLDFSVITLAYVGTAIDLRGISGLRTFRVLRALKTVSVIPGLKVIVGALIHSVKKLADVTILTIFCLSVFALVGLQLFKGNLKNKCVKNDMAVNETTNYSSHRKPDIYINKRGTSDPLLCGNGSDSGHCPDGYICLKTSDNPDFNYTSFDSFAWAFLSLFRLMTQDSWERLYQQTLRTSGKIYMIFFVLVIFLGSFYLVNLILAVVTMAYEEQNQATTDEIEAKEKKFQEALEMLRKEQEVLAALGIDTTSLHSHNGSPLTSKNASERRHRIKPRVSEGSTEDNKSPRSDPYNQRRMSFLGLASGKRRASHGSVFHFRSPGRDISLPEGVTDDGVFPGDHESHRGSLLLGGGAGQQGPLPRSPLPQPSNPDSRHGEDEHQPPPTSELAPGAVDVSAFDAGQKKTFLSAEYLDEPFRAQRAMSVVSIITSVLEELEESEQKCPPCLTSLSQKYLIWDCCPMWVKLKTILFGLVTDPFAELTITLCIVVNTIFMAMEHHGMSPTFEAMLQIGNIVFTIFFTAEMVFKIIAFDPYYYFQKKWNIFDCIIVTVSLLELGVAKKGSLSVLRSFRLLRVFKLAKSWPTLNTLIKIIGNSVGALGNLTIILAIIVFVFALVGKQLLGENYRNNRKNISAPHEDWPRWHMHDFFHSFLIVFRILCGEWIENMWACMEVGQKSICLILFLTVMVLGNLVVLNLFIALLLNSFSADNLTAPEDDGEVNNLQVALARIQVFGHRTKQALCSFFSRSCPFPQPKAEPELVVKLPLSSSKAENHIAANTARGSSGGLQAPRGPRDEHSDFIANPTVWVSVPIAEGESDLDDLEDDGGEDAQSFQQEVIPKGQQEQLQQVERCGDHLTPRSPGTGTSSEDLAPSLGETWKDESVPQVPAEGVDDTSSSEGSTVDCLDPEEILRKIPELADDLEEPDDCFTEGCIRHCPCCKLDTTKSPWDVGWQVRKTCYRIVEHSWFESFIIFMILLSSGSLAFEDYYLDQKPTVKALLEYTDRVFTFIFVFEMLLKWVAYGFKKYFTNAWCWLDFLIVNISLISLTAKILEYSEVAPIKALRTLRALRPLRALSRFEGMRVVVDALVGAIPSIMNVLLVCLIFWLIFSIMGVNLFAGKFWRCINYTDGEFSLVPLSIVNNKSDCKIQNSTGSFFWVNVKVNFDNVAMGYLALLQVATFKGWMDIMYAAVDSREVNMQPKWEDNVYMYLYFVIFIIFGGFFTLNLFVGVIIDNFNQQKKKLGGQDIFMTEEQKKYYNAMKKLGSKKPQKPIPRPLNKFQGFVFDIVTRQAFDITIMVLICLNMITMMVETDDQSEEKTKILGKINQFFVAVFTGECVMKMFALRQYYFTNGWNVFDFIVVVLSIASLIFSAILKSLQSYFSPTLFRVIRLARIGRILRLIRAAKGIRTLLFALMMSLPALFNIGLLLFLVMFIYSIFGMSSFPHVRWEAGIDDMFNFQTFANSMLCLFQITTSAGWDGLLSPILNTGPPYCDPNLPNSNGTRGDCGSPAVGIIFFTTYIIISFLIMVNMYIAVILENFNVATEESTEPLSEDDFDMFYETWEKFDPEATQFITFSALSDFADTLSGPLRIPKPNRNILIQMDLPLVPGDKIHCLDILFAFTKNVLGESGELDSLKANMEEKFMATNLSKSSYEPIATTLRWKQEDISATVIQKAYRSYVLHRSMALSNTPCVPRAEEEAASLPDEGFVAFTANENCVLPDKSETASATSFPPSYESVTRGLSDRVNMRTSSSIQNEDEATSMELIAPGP
Where a name gives a salt, the structure may show the parent alone.

[
  {
    "COMPOUND": "Cc1c(C(F)(F)F)nnc(N2CCCC(F)(F)CC2)c1C(=O)Nc1cccc([S@@](C)(=O)=NC(=O)C(C)(C)N)c1",
    "IC50": "≤ 5 nM"
  }
]

Kindly give each listed record's IC50.
1. CS(=N)(=O)c1cccc(NC(=O)c2cc(C(F)(F)F)nnc2N2CCCCCC2)c1 (stereo not shown)
2. Cc1c(C#N)c(C(F)(F)F)nc(N2CCCC(F)(F)CC2)c1C(=O)Nc1cccc([S@@](C)(=O)=NCCN)c1
3. Cc1c(C(F)(F)F)cnc(N2CCCC(F)(F)CC2)c1C(=O)Nc1cccc([S@@](C)(=O)=NC(=O)C2(N)CCC2)c1
4. Cc1c(-c2cnn(C)c2)cnc(N2CCCC(F)(F)CC2)c1C(=O)Nc1cccc([S@@](C)(=O)=NC(=O)C2(N)CC2)c1 [Example 53, formate]

1. > 200 nM
2. ≤ 5 nM
3. ≤ 5 nM
4. 5 to 50 nM

Kindly give each listed record's IC50.
1. CNCC(=O)N=[S@](C)(=O)c1cccc(NC(=O)c2c(N3CCCC(F)(F)CC3)ncc(C#CC3CC3)c2C)c1
2. Cc1nc(N2CCCC(F)(F)CC2)c(C(=O)Nc2cccc([S@](C)(=N)=O)c2)c(C)c1C(F)(F)F (single isomer, unassigned)

≤ 5 nM
≤ 5 nM

All values here come from patent US20250154109A1.
